Kd for Fatty acid-binding protein, adipocyte (Homo sapiens, UniProt P15090) - collated from the literature.

Below: 5 molecules and their reported Kd.
molecule	target.entity	Kd
CCc1ccc(OCc2cc(=O)n3nc(CO)nc3[nH]2)cc1	Fatty acid-binding protein, adipocyte (Homo sapiens, UniProt P15090)	> 500 nM
O=c1cc(COCc2cccnc2F)[nH]c2nc(-c3ccccc3)nn12	Fatty acid-binding protein, adipocyte (Homo sapiens, UniProt P15090)	200 to 5000 nM
O=C(c1nc2cccc(Cl)c2nc1O)N1CCCC1Cc1ccc(Cl)c(Cl)c1 (stereo not drawn)	Fatty acid-binding protein, adipocyte (Homo sapiens, UniProt P15090)	4 nM
O=C(c1nc2ccc(S(=O)(=O)C(F)(F)F)cc2nc1O)N1CCCC1Cc1cccc(Cl)c1 (racemic)	Fatty acid-binding protein, adipocyte (Homo sapiens, UniProt P15090)	100 nM
NC1(COC(=O)C2(OCc3cc(=O)n4nc(-c5ccccc5)nc4[nH]3)CCCCC2)CCOCC1	Fatty acid-binding protein, adipocyte (Homo sapiens, UniProt P15090)	> 500 nM

Kd recorded for this molecule, O=C(c1nc2cccc(Cl)c2nc1O)N1CCCC1Cc1cccc(Cl)c1 (racemic) , is 3 nM

Kd recorded for this molecule, CCc1ccc(OCc2cc(=O)n3ncnc3[nH]2)cc1 , is > 500 nM

Kd recorded for this molecule, O=C(c1nc2ccccc2nc1O)N1CCCC[C@H]1Cc1cccc(Cl)c1 , is 1200 nM

Kd recorded for this molecule, O=c1cc(COC2CCSCC2)[nH]c2nc(-c3ccccc3)nn12 , is > 500 nM

###

Kd for Fatty acid-binding protein, adipocyte (Homo sapiens) - collated from the literature.

Below: 4 molecules and their reported Kd.
molecule	target.entity	value.observed
CC(OCc1cc(=O)n2nc(-c3ccccc3)nc2[nH]1)C1CCCCC1 (centres unmarked)	Fatty acid-binding protein, adipocyte (Homo sapiens)	1 to 200 nM
CC(C)(Cc1ccccc1)OCc1cc(=O)n2nc(-c3ccccc3)nc2[nH]1	Fatty acid-binding protein, adipocyte (Homo sapiens)	1 to 200 nM
Cc1c(Cl)cccc1OC(C)(C)COCc1cc(=O)n2nc(-c3ccccc3)nc2[nH]1	Fatty acid-binding protein, adipocyte (Homo sapiens)	1 to 200 nM
CCC(OCc1cc(=O)n2nc(-c3ccccc3)nc2[nH]1)c1ccccc1Cl (centres unmarked)	Fatty acid-binding protein, adipocyte (Homo sapiens)	1 to 200 nM

# value of Kd, Fatty acid-binding protein, adipocyte (Homo sapiens), item COc1cccc(C2(CNC(=O)c3c(Cl)cccc3OCc3cc(=O)n4nc(-c5ccccc5)nc4[nH]3)CCC2)c1 = ≤ 1 nM

# value of Kd, Fatty acid-binding protein, adipocyte (Homo sapiens), item COc1ccc(CC2CCCCN2C(=O)c2nc3ccccc3nc2O)cc1 (racemic) = 4760 nM

# value of Kd, Fatty acid-binding protein, adipocyte (Homo sapiens), item O=c1cc(COC(CO)c2ccccc2Cl)[nH]c2nc(-c3ccccc3)nn12 (centres unmarked) = > 5000 nM

# value of Kd, Fatty acid-binding protein, adipocyte (Homo sapiens), item COc1cc2nc(O)c(C(=O)N3CCCC3Cc3cccc(Cl)c3)nc2cc1OC (racemic) = 22500 nM

###

Kd for Fatty acid-binding protein, adipocyte (Homo sapiens, UniProt P15090) - collated from the literature.

Below: 4 molecules and their reported Kd.
molecule	Kd
O=c1cc(COc2cccc(C(F)(F)F)c2)[nH]c2nc(C(F)(F)F)nn12	> 500 nM
O=C(c1nc2cc(SC(F)(F)F)ccc2nc1O)N1CCCC1Cc1cccc(Cl)c1 (racemic)	24 nM
O=c1cc(COC(CC2CC2)c2ccccc2)[nH]c2nc(-c3ccccc3)nn12 (centres unmarked)	200 to 5000 nM
CC(Cc1cc(=O)n2nc(-c3ccccc3)nc2[nH]1)(Oc1cccc(Cl)c1)C(=O)NCC1(c2ccccc2Cl)CC1 (centres unmarked)	1 to 200 nM

Below: the item to evaluate.
Kd recorded for this molecule, NCc1cccc(OCc2cc(=O)n3nc(-c4ccccc4)nc3[nH]2)c1C1CC1 , is > 500 nM

###

pKd: −log10 of the molar value.
pKd for Fatty acid-binding protein, adipocyte (Homo sapiens, UniProt P15090) - collated from the literature.

compound	target.entity	pKd
CC(OCc1cc(=O)n2nc(-c3ccccc3)nc2[nH]1)c1ccccc1F (stereo not drawn)	Fatty acid-binding protein, adipocyte (Homo sapiens, UniProt P15090)	5.30 to 6.70
CCC(c1ccccc1)C1CCCN1C(=O)c1nc2ccccc2nc1O (racemic)	Fatty acid-binding protein, adipocyte (Homo sapiens, UniProt P15090)	4.93
CCc1ccc(OCc2cc(=O)n3nc(C4CCC4)nc3[nH]2)cc1	Fatty acid-binding protein, adipocyte (Homo sapiens, UniProt P15090)	< 6.30
O=c1cc(COCc2cccc(Cl)c2Cl)[nH]c2nc(-c3ccccc3)nn12	Fatty acid-binding protein, adipocyte (Homo sapiens, UniProt P15090)	5.30 to 6.70
O=C(c1nc2ccccc2nc1O)N1CCCC(Cc2ccc(F)cc2)C1 (racemic)	Fatty acid-binding protein, adipocyte (Homo sapiens, UniProt P15090)	5.26
O=C(c1nc2cc(F)c(F)cc2nc1O)N1CCC[C@H]1Cc1cc(Cl)cc(Cl)c1	Fatty acid-binding protein, adipocyte (Homo sapiens, UniProt P15090)	8.89
Cn1cc2cccc(NCc3cc(=O)n4nc(-c5ccccc5)nc4[nH]3)c2n1	Fatty acid-binding protein, adipocyte (Homo sapiens, UniProt P15090)	< 6.30
O=c1cc(COC2CCOCC2)[nH]c2nc(-c3ccccc3)nn12	Fatty acid-binding protein, adipocyte (Homo sapiens, UniProt P15090)	< 6.30

Below: the item to evaluate.
pKd recorded for this compound, O=c1cc(CN2Cc3ccccc3C2)[nH]c2nc(-c3ccccc3)nn12 , is < 6.30
